- System name: Programmed cell death protein 1/Programmed cell death 1 ligand 1 (Homo sapiens, UniProt Q9NZQ7)
- Sequence (Q15116 whole entry): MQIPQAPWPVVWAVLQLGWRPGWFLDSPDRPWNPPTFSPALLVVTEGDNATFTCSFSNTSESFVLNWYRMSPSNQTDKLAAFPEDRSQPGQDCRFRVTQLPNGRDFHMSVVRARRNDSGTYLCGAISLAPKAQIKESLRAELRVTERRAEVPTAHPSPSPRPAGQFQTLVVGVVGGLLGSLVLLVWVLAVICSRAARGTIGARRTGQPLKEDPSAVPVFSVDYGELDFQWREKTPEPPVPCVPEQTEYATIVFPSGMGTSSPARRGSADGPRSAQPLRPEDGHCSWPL
- Sequence (Q9NZQ7 whole entry): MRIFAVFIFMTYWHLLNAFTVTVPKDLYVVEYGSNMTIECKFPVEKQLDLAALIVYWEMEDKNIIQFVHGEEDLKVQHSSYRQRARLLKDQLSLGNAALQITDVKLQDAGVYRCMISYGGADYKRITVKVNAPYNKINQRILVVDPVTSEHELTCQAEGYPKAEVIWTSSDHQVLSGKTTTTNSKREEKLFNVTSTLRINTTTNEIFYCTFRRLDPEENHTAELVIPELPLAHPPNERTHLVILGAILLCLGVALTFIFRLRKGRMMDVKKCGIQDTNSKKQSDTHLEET
- Method description: Inhibition of europium-labeled PD-1/biotinylated PD-L1 interaction (unknown origin) preincubated for 15 mins with PD-L1 followed by PD-1 addition and measured after 90 mins by TR-FRET assay
Quick rule for you: IC50 under 2 µM gets met, anything else gets not met.

In the record for Cc1c(-c2ccccc2)cccc1N1C(=O)c2ccc(CNCCNC(=O)OC(C)(C)C)cc2C1=O , is IC50 less than 2 µM?
not met

Would you kindly repeat that for Cc1c(CN2C(=O)c3ccc(CN4CCCC[C@H]4C(=O)O)cc3C2=O)cccc1-c1ccccc1 ?
not met

Would you kindly repeat that for Cc1c(-c2ccccc2)cccc1N1C(=O)c2ccc(CN3CCOCC3)cc2C1=O ?
not met

Would you kindly repeat that for Cc1c(-c2ccccc2)cccc1N1C(=O)c2ccc(C(=O)NCCO)cc2C1=O ?
met

Would you kindly repeat that for CC(=O)COc1ccc2c(c1)C(=O)N(c1cccc(-c3ccccc3)c1C#N)C2=O ?
met

Next:
In the record for COc1cc2c(cc1CNCC(=O)O)C(=O)N(c1cccc(-c3ccccc3)c1C)C2=O , is IC50 less than 2 µM?
met

Would you kindly repeat that for Cc1c(-c2ccccc2)cccc1N1C(=O)c2ccc(OCc3ccc(C(C)C)cc3)cc2C1=O ?
not met

Would you kindly repeat that for Cc1c(-c2ccc3c(c2)OCCO3)cccc1N1C(=O)c2ccc(C(=O)NCCO)cc2C1=O ?
met

Would you kindly repeat that for CCOC(=O)[C@H](CO)NCc1ccc2c(c1)C(=O)N(c1cccc(-c3ccccc3)c1C)C2=O ?
not met

Would you kindly repeat that for CC(=O)COc1ccc2c(c1)C(=O)N(c1cccc(-c3ccccc3)c1C)C2=O ?
met

Would you kindly repeat that for Cc1c(-c2ccccc2)cccc1N1C(=O)c2ccc(CN3CCC[C@H]3C(N)=O)cc2C1=O ?
not met

Would you kindly repeat that for COc1cc2c(cc1CN1CCC[C@H]1C(=O)O)C(=O)N(c1cccc(-c3ccccc3)c1C)C2=O ?
met

Would you kindly repeat that for Cc1c(-c2ccccc2)cccc1N1C(=O)c2ccc(CN3CCC[C@H]3C(=O)O)cc2C1=O ?
met

Would you kindly repeat that for N#Cc1cccc(COc2ccc3c(c2)C(=O)N(c2cccc(-c4ccccc4)c2C#N)C3=O)c1 ?
met

Would you kindly repeat that for COc1cc2c(cc1CN[C@@H](CO)C(=O)OC(C)(C)C)C(=O)N(c1cccc(-c3ccccc3)c1C)C2=O ?
met

---

log10 of IC50 overview
- System name: Programmed cell death protein 1/Programmed cell death 1 ligand 1 (Homo sapiens)
- Method description: Inhibition of europium-labeled PD-1/biotinylated PD-L1 interaction (unknown origin) preincubated for 15 mins with PD-L1 followed by PD-1 addition and measured after 90 mins by TR-FRET assay
- Assay type: protein-complex assay
Would you kindly interpret these values as log10 of IC50 expressed in nM?

Which measured log10 of IC50 value corresponds to COc1cc2c(cc1CNCCO)C(=O)N(c1cccc(-c3ccccc3)c1C)C2=O ?
1.19

Would you kindly repeat that for N#Cc1c(-c2ccccc2)cccc1N1C(=O)c2ccc(C(=O)N3CCOCC3)cc2C1=O ?
3.83

Would you kindly repeat that for CC(=O)NCCNCc1ccc2c(c1)C(=O)N(c1cccc(-c3ccccc3)c1C)C2=O ?
2.77

Would you kindly repeat that for COc1cc2c(cc1CN[C@@H](CO)C(=O)O)C(=O)N(c1cccc(-c3ccccc3)c1C)C2=O ?
0.79

Would you kindly repeat that for Cc1c(-c2ccccc2)cccc1N1C(=O)c2ccc(CN[C@@H](CO)C(=O)O)cc2C1=O ?
2.19

Would you kindly repeat that for COc1cc2c(cc1CN[C@@H](C)C(=O)O)C(=O)N(c1cccc(-c3ccccc3)c1C)C2=O ?
1.23

Moving on to another molecule below.
Which measured log10 of IC50 value corresponds to Cc1c(-c2ccccc2)cccc1N1C(=O)c2ccc(CN(C)CCO)cc2C1=O ?
2.96

---

- System name: Programmed cell death protein 1/Programmed cell death 1 ligand 1 (Homo sapiens)
- Method description: Inhibition of europium-labeled PD-1/biotinylated PD-L1 interaction (unknown origin) preincubated for 15 mins with PD-L1 followed by PD-1 addition and measured after 90 mins by TR-FRET assay
Parameter: pIC50
// pIC50: -log10(molar conc.)

Find pIC50 (Programmed cell death protein 1/Programmed cell death 1 ligand 1 (Homo sapiens)) for the entry Cc1c(-c2ccccc2)cccc1N1C(=O)c2ccc(CNCCN)cc2C1=O
6.04

Would you kindly repeat that for Cc1c(-c2ccccc2)cccc1N1C(=O)c2ccc(CN3CCCC[C@H]3C(=O)O)cc2C1=O ?
5.68

Would you kindly repeat that for Cc1c(-c2ccccc2)cccc1N1C(=O)c2ccc(CNCCNS(C)(=O)=O)cc2C1=O ?
6.01

Next:
Find pIC50 (Programmed cell death protein 1/Programmed cell death 1 ligand 1 (Homo sapiens)) for the entry COc1cc2c(cc1CNCCNC(C)=O)C(=O)N(c1cccc(-c3ccccc3)c1C)C2=O
7.34

Would you kindly repeat that for Cc1c(CN2C(=O)c3ccc(CNCCO)cc3C2=O)cccc1-c1ccccc1 ?
5.42

Would you kindly repeat that for Cc1c(-c2ccccc2)cccc1N1C(=O)c2ccc(CN3CCC[C@H]3CO)cc2C1=O ?
5.66

---

- Method description: Half life in ICR mouse at 5 mg/kg, iv
- Format: ADME, organism-based
- Study conditions: in vivo
Parameter: half-life (h)
Just the number please, in h, no unit attached.

Which measured half-life value corresponds to COc1cc2c(cc1CN[C@@H](CO)C(=O)O)C(=O)N(c1cccc(-c3ccccc3)c1C)C2=O ?
9.78

---

IC50 overview
- System name: Programmed cell death protein 1/Programmed cell death 1 ligand 1 (Homo sapiens, UniProt Q9NZQ7)
- Method description: Inhibition of europium-labeled PD-1/biotinylated PD-L1 interaction (unknown origin) preincubated for 15 mins with PD-L1 followed by PD-1 addition and measured after 90 mins by TR-FRET assay
Quick note: number first, unit second.

Completed entries (count: 3):
Which measured IC50 value corresponds to Cc1c(-c2ccccc2)cccc1N1C(=O)c2ccc(C(=O)N3CCOCC3)cc2C1=O ?
1950 nM

Would you kindly repeat that for Cc1c(-c2ccccc2)cccc1N1C(=O)c2ccc(CNC3CCOCC3)cc2C1=O ?
683 nM

Would you kindly repeat that for CC(=O)NCCNCc1ccc2c(c1)C(=O)N(Cc1cccc(-c3ccccc3)c1C)C2=O ?
5410 nM

Moving on to another compound below.
Which measured IC50 value corresponds to N#Cc1c(-c2ccccc2)cccc1N1C(=O)c2ccc(C(=O)NCCO)cc2C1=O ?
3670 nM
